Where do these numbers come from? They come from patent US20260174682A1.

- study system: human recombinant calcium ion channel Cav2.2/β3/α2δ-1 (Homo sapiens)
- Construct: expressed in transfected cells; host or cells: CHO cells (membranes)
- Sequence (P54289 25-956 limits assumed): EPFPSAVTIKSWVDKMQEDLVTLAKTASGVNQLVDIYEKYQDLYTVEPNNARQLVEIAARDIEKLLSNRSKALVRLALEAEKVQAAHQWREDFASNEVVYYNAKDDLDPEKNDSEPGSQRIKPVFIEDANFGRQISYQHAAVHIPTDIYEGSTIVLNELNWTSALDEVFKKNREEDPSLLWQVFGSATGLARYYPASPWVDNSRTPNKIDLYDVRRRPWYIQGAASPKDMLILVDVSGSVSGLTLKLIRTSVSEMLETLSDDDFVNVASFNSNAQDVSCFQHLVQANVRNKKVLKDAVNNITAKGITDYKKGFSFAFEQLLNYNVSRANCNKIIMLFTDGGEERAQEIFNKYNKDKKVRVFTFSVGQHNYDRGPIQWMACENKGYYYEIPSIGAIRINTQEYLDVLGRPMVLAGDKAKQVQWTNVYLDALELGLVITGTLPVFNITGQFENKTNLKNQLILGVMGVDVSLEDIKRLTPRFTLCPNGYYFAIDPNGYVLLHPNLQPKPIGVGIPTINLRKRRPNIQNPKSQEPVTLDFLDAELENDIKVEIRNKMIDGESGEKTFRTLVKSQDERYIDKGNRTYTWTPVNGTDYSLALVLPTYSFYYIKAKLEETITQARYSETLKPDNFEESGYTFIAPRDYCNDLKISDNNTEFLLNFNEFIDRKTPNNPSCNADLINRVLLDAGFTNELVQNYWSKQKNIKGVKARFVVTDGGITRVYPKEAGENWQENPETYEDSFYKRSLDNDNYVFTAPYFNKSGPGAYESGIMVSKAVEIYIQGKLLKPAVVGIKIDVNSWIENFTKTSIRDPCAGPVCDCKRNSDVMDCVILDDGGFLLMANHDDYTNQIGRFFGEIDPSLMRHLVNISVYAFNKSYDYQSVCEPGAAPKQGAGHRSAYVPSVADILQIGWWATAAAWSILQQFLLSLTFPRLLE
- Sequence (P54289 957-1103 partner limits assumed): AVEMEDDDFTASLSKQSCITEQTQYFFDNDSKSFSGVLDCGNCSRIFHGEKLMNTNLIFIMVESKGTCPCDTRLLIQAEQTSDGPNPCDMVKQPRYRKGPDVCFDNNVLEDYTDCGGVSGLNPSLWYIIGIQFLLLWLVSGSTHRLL
- Sequence (Q00975 whole entry partner): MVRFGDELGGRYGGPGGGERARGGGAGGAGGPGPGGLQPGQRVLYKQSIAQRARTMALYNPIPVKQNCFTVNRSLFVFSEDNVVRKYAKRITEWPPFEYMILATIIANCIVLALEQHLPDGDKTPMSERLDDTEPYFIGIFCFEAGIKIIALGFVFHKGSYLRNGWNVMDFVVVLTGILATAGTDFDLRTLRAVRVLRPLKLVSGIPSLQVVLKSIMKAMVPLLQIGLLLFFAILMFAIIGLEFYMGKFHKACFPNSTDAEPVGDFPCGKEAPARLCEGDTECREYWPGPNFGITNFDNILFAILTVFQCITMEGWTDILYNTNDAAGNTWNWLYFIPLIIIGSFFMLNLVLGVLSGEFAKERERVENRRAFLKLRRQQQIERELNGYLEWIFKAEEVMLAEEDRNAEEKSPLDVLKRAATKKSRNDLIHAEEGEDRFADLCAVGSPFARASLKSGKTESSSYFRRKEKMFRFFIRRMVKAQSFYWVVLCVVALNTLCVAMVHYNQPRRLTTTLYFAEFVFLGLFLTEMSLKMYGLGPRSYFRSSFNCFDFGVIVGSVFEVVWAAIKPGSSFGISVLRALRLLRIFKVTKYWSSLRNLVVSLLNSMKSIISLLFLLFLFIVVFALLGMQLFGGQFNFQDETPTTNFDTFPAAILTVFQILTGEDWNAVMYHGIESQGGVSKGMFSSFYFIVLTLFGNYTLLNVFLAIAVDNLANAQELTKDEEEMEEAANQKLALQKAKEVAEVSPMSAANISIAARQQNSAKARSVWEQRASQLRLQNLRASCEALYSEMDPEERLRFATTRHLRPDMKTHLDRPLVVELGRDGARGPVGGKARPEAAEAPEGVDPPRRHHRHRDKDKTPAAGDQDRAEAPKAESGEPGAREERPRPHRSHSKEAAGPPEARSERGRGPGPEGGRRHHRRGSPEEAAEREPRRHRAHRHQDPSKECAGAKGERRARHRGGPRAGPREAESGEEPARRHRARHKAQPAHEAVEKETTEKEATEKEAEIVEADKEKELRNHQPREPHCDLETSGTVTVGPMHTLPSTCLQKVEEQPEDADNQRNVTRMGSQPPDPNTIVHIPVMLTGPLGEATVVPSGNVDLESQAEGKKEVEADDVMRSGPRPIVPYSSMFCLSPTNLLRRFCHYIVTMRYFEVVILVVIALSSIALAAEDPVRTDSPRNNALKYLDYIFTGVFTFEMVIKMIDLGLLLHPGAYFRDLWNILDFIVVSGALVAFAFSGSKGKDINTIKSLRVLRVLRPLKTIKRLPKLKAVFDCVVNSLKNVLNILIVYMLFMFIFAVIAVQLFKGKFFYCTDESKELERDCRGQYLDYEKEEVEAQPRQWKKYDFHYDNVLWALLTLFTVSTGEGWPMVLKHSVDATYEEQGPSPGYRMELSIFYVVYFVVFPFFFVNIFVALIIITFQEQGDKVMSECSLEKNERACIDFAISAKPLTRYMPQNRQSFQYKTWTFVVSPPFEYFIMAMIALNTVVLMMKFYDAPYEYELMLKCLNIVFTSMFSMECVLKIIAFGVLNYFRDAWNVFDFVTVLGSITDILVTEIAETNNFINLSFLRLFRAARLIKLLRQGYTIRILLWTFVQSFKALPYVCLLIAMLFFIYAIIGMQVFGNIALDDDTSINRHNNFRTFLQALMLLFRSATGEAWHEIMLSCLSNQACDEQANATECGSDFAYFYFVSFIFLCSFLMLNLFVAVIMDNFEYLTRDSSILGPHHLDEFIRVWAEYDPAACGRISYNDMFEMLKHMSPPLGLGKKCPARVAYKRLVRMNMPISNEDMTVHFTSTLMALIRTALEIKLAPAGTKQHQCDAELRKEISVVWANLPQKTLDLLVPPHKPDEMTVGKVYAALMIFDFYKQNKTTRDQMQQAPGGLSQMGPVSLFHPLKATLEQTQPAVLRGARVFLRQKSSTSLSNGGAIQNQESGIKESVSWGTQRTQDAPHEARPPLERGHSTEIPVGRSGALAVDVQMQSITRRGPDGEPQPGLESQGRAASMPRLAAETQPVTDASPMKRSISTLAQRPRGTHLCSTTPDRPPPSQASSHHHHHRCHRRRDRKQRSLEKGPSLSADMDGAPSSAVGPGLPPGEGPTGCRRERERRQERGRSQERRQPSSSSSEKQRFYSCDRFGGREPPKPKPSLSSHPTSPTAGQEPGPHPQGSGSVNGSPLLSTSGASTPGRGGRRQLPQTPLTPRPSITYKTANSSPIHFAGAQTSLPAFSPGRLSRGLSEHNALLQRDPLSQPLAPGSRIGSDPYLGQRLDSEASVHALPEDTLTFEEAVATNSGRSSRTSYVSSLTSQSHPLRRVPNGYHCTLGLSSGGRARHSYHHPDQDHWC
- Sequence (P54284 whole entry partner): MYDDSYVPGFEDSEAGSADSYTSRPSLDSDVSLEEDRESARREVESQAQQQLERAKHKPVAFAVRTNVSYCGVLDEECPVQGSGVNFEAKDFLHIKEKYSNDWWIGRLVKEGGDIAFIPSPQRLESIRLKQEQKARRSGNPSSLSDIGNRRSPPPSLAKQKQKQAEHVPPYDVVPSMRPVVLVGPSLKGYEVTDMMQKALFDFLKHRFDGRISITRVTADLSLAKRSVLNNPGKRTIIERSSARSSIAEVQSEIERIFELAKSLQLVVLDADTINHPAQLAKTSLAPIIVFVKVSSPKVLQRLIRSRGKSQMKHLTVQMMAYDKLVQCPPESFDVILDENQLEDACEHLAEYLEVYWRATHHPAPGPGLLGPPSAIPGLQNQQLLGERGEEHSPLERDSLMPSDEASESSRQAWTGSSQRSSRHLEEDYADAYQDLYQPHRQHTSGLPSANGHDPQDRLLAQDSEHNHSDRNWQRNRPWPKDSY
- assay info: In vitro binding to human recombinant calcium ion channel Cav2.2/β3/α2δ-1 ([3H]gabapentin competition)
parameter measured: IC50
Put your answer as a value accompanied by its unit after it.

[Q] What measured IC50 is associated with `CC(C)C[C@H](CN)CC(=O)O` on human recombinant calcium ion channel Cav2.2/β3/α2δ-1 (Homo sapiens)?
[A] 38 nM
